pKi: −log10 of the molar value.
Below are pKi measurements against 5-hydroxytryptamine receptor 1E (Homo sapiens, UniProt P28566) drawn from the literature.
Sequence (P28566 whole entry): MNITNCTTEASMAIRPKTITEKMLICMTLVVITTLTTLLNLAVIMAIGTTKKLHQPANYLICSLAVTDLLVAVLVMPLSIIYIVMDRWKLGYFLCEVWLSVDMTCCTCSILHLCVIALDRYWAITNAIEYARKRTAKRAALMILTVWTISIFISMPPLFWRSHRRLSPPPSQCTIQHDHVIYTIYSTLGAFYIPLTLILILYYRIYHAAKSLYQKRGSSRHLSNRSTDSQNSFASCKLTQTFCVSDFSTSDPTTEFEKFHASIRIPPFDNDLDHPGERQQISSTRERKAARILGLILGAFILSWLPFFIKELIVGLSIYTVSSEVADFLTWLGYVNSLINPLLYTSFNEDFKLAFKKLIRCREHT

Check out these entries, answers already filled in.
- molecule: "O=C(/C=C/c1ccc(Cl)c(Cl)c1)NCCCCCN1CCC(c2c[nH]c3ccc(O)cc23)CC1"
  measured: 8.20
- molecule: "CCC(=O)Nc1ccc2[nH]cc(C3CCN(C)CC3)c2n1"
  measured: 6.11
- molecule: "COc1ccc(C2NCCc3c2[nH]c2ccc(Cl)cc32)c(O)c1 (centres undefined)"
  measured: 5.76
- molecule: "OCCOCCN1CCN(C2=Nc3ccccc3Sc3ccccc32)CC1"
  measured: "< 6.00"
- molecule: "CN1CCc2c(c3cccc4c3n2CCc2ccccc2-4)C1"
  measured: "< 5.00"

**Q:** // map CCOC(=O)c1cccc(NC2=NC(N(C)C)=NC3(CCCCC3)N2)c1 to recorded pKi (system: 5-hydroxytryptamine receptor 1E (Homo sapiens, UniProt P28566))
**A:** < 5.00

**Q:** // map CC1(C)N=C(N)N=C(Nc2cccc(Br)c2)N1 to recorded pKi (system: 5-hydroxytryptamine receptor 1E (Homo sapiens, UniProt P28566))
**A:** < 5.00

**Q:** // map O=S(=O)(c1ccc2cc[nH]c2c1)N1CCC[C@@H]1CCN1CCC(Oc2ccc(Cl)cc2)CC1 to recorded pKi (system: 5-hydroxytryptamine receptor 1E (Homo sapiens, UniProt P28566))
**A:** < 5.30

**Q:** // map c1ccc(-c2ccc(N3CCN(Cc4c[nH]c5ncccc45)CC3)cc2)cc1 to recorded pKi (system: 5-hydroxytryptamine receptor 1E (Homo sapiens, UniProt P28566))
**A:** < 5.00

**Q:** // map O=C(N[C@H]1CCN(Cc2ccc(OC3CCNCC3)c(Br)c2)C1)c1ccc(Cl)c(Cl)c1 to recorded pKi (system: 5-hydroxytryptamine receptor 1E (Homo sapiens, UniProt P28566))
**A:** < 5.00

**Q:** // map CN(C)CCN(Cc1ccc(-c2ccc(CNCCc3ccccc3)cc2)cc1)C(=O)CCC1CCCC1 to recorded pKi (system: 5-hydroxytryptamine receptor 1E (Homo sapiens, UniProt P28566))
**A:** < 5.00
